system: human lung cancer strain NCI-H441; type: cell-based
Where a SMILES comes first, the peptide text is derived from it. Bridges are numbered along the chain shown (N, C = ends). [ ]: non-standard residue; d: D form. The star is where a group is joined. hPhe(3-Cl-4-CF3) = N[C@@H](CCc1ccc(C(F)(F)F)c(Cl)c1)C(=O)O; NPrPhe(4-CF3) = CCCN[C@@H](Cc1ccc(C(F)(F)F)cc1)C(=O)O; NMeGly(cPent) = CN[C@H](C(=O)O)C1CCCC1; cisHyp = O=C(O)[C@@H]1C[C@H](O)CN1; NMeD = CN[C@@H](CC(=O)O)C(=O)O; NMeL = CN[C@@H](CC(C)C)C(=O)O; Morpholide = C1CN(*)CCO1; NMeA = CN[C@@H](C)C(=O)O; Ac5c = NC1(C(=O)O)CCCC1; Aze = O=C(O)[C@@H]1CCN1; Sar = CNCC(=O)O
QUANTITY_NAME: pIC50
Field pIC50 (float): negative decimal logarithm of the concentration in molar.

// query State its pIC50 for this compound: CC[C@H](C)[C@@H]1NC(=O)[C@@H]2CCCCCc3ccc(cc3)C[C@@H](C(=O)N(C)CC(=O)N[C@@H](CCc3ccc(C(F)(F)F)c(OC)c3)C(=O)N3C[C@H](OC4CCC4)C[C@H]3C(=O)NC3(CC(C)(C)C3)C(=O)N(C)[C@@H](C3CCCC3)C(=O)N(C)[C@H](C(=O)N(C)C)CC(=O)N2C)N2CC/C=C\C[C@@H](C2=O)N(C)C(=O)CN(C)C1=O
// result 8.72

// query For CCC[C@H]1C(=O)N[C@@H]([C@@H](C)CC)C(=O)N(C)CC(=O)N(C)[C@H]2C/C=C\CCN(C2=O)[C@@H](Cc2ccc(C)cc2)C(=O)N(C)CC(=O)N[C@@H](CCc2ccc(C(F)(F)F)c(OC)c2)C(=O)N2C[C@H](OCC)C[C@H]2C(=O)NC2(CC(C)(C)C2)C(=O)N(C)[C@@H](C2CCCC2)C(=O)N(C)[C@H](C(=O)N(C)C)CC(=O)N1C , write its pIC50.
// result 8.32

// query State its pIC50: CCCN1CC(=O)N(C)[C@H]2C/C=C\CCN(C2=O)[C@@H](Cc2ccc(C)cc2)C(=O)N(C)CC(=O)N[C@@H](CCc2ccc(C(F)(F)F)c(OC)c2)C(=O)N2C[C@H](OCC)C[C@H]2C(=O)NC2(CC(C)(C)C2)C(=O)N(C)[C@@H](C2CCCC2)C(=O)N(C)[C@H](C(=O)N(C)C)CC(=O)N(C)[C@@H](CC)C(=O)N[C@@H]([C@@H](C)CC)C1=O
// result 7.97

// query Supply measured pIC50 of CCC[C@H]1C(=O)N[C@@H]([C@@H](C)CC)C(=O)N(C)CC(=O)N(C)[C@H]2C/C=C\CCN(C2=O)[C@@H](Cc2ccc(C(F)(F)F)cc2)C(=O)N(C)CC(=O)N[C@@H](CCc2ccc(C(F)(F)F)c(Cl)c2)C(=O)N2CCCC[C@H]2C(=O)NC2(CC(C)(C)C2)C(=O)N(C)[C@@H](C(CC)CC)C(=O)N(C)[C@H](C(=O)N(C)C)CC(=O)N1C in your reply.
// result 6.77

// query Specify measured pIC50 for CC[C@H](C)[C@@H]1NC(=O)[C@H](C)N(C)C(=O)C[C@@H](C(=O)N2CCOCC2)N(C)C(=O)[C@H](C2CCCC2)N(C)C(=O)C2(CCC2)NC(=O)[C@@H]2CC(F)(F)CN2C(=O)[C@H](CCc2cc(F)c(C(F)(F)F)c(F)c2)NC(=O)CN(C)C(=O)[C@H](Cc2ccc(C(F)(F)F)cc2)N2CCCC[C@@H](C2=O)N(C)C(=O)CN(C)C1=O .
// result 8.02

// query Assign pIC50 to the following record: CCO[C@@H]1C[C@H]2C(=O)NC3(CCC3)C(=O)N(C)[C@@H](C3CCCC3)C(=O)N(C)[C@H](C(=O)N(C)C)CC(=O)N(C)[C@@H](CC)C(=O)N[C@@H]([C@@H](C)CC)C(=O)N(C)CC(=O)N(C)[C@H]3CCCCCN(C3=O)[C@@H](Cc3ccc(C(F)(F)F)cc3)C(=O)N(C)CC(=O)N[C@@H](CCc3cc(Cl)c(C(F)(F)F)c(Cl)c3)C(=O)N2C1
// result 6.87

// query Tell us which pIC50 value is on record for CCCN1C(=O)[C@@H]2CCN2C(=O)[C@H](C)N(C)C(=O)[C@H]([C@@H](C)CC)NC(=O)[C@H](CC(C)C)N(C)C(=O)C[C@@H](C(=O)N2CCOCC2)N(C)C(=O)[C@H](C2CCCC2)N(C)C(=O)C2(CCCC2)NC(=O)[C@@H]2C[C@H](OCC)CN2C(=O)[C@H](CCc2ccc(C(F)(F)F)c(Cl)c2)NC(=O)CN(C)C(=O)[C@@H]1Cc1ccc(C(F)(F)F)cc1 [PP0242] ([NMeL]I[NMeA][Aze][NPrPhe(4-CF3)][Sar][hPhe(3-Cl-4-CF3)][cisHyp](Et)[Ac5c][NMeGly(cPent)][NMeD]-Morpholide; lactam N-11)
// result 8.30

// query Determine from records and report pIC50 for CCCN(C)C(=O)[C@@H]1CC(=O)N(C)[C@@H](C2CC2)C(=O)N[C@@H]([C@@H](C)CC)C(=O)N(C)CC(=O)N(C)[C@H]2C/C=C\CCN(C2=O)[C@@H](Cc2ccc(C(F)(F)F)cc2)C(=O)N(C)CC(=O)N[C@@H](CCc2ccc(C(F)(F)F)c(OC)c2)C(=O)N2C[C@@H](C)C[C@H]2C(=O)NC2(CCC2)C(=O)N(C)[C@@H](C2CCCC2)C(=O)N1C
// result 7.95

// query # return recorded pIC50 for input CCO[C@@H]1C[C@H]2C(=O)NC3(CCC3)C(=O)N(C)[C@@H](C3CCCC3)C(=O)N(C)[C@H](C(=O)N3CCOCC3)CC(=O)N(C)[C@@H](COC)C(=O)N[C@@H]([C@@H](C)CC)C(=O)N(C)CC(=O)N(C)[C@H]3CCCCCN(C3=O)[C@@H](Cc3ccc(C(F)(F)F)cc3)C(=O)N(C)CC(=O)N[C@@H](CCc3ccc(C(F)(F)F)c(Cl)c3)C(=O)N2C1
// result 7.45

// query Give pIC50 for CCC[C@H]1C(=O)N[C@@H]([C@@H](C)CC)C(=O)N(C)CC(=O)N(C)[C@H]2C/C=C\CCN(C2=O)[C@@H](Cc2ccc(C)cc2)C(=O)N(C)CC(=O)N[C@@H](CCc2ccc(C(F)(F)F)c(Cl)c2)C(=O)N2C[C@@H](C)C[C@H]2C(=O)NC2(CCC2)C(=O)N(C)[C@@H](C2CCCC2)C(=O)N(C)[C@H](C(=O)N(C)CC)CC(=O)N1C
// result 7.65

// query Report measured pIC50; entry is CCO[C@@H]1C[C@H]2C(=O)NC3(CCC3)C(=O)N(C)[C@@H](C3CCCC3)C(=O)N(C)[C@H](C(=O)N3CCOCC3)CC(=O)N(C)[C@@H](CC(C)C)C(=O)N[C@@H]([C@@H](C)CC)C(=O)N(C)CC(=O)N(C)[C@H]3CCCCCN(C3=O)[C@@H](Cc3ccc(F)cc3Cl)C(=O)N(C)CC(=O)N[C@@H](CCc3cc(F)c(C(F)(F)F)c(F)c3)C(=O)N2C1
// result 7.56

---

test system: human lung cancer strain NCI-H441; assay type: cell-based
pIC50: −log10 of the molar value. Where a SMILES comes first, the peptide text is derived from it. Bridges are numbered along the chain shown (N, C = ends). [ ]: non-standard residue; d: D form. The star is where a group is joined. hPhe(3-Cl-4-CF3) = N[C@@H](CCc1ccc(C(F)(F)F)c(Cl)c1)C(=O)O; NPrPhe(4-CF3) = CCCN[C@@H](Cc1ccc(C(F)(F)F)cc1)C(=O)O; NMeGly(cPent) = CN[C@H](C(=O)O)C1CCCC1; NMeD = CN[C@@H](CC(=O)O)C(=O)O; NMeL = CN[C@@H](CC(C)C)C(=O)O; Ac5c = NC1(C(=O)O)CCCC1; X11 = CC1(C)CCN(*)C1; Sar = CNCC(=O)O
If the reported pIC50 equals or exceeds 8, assign y. If not, assign n.

// query Textbook exercise: given the entry CCC[C@H]1C(=O)N[C@@H](C2CCC2)C(=O)N(C)CC(=O)N(C)[C@H]2C/C=C\CCN(C2=O)[C@@H](Cc2ccc(C)cc2)C(=O)N(C)CC(=O)N[C@@H](CCc2ccc(C(F)(F)F)c(F)c2)C(=O)N2C[C@H](OCC)C[C@H]2C(=O)NC2(CC(C)(C)C2)C(=O)N(C)[C@@H](C2CCC2)C(=O)N(C)[C@H](C(=O)N(C)C)CC(=O)N1C [PP2242] , state whether its pIC50 is greater than or equal to 8.
// result n

// query Does the molecule CCO[C@@H]1C[C@H]2C(=O)NC3(CCC3)C(=O)N(C)[C@@H](C3CCCC3)C(=O)N(C)[C@H](C(=O)N(C)C)CC(=O)N(C)[C@@H](CC3CCCC3)C(=O)N[C@@H]([C@@H](C)CC)C(=O)N(C)CC(=O)N(C)[C@H]3C/C=C\CCN(C3=O)[C@@H](Cc3ccc(C)cc3)C(=O)N(C)CC(=O)N[C@@H](CCc3cc(Cl)c(C(F)(F)F)c(Cl)c3)C(=O)N2C1 [PP2679] have recorded pIC50 that is 8 or more?
// result n

// query Check the entry CCCN1C(=O)CN(C)C(=O)CN(C)C(=O)[C@H]([C@@H](C)CC)NC(=O)[C@H](CC(C)C)N(C)C(=O)C[C@@H](C(=O)N2CCC(C)(C)C2)N(C)C(=O)[C@H](C2CCCC2)N(C)C(=O)C2(CCCC2)NC(=O)[C@@H]2CCCN2C(=O)[C@H](CCc2ccc(C(F)(F)F)c(Cl)c2)NC(=O)CN(C)C(=O)[C@@H]1Cc1ccc(C(F)(F)F)cc1 [PP0177] ([NMeL]I[Sar][Sar][NPrPhe(4-CF3)][Sar][hPhe(3-Cl-4-CF3)]P[Ac5c][NMeGly(cPent)][NMeD]-X11; lactam N-11) : does pIC50 equal or exceed 8?
// result n

// query Could you tell me if the measured pIC50 of CCO[C@@H]1C[C@H]2C(=O)NC3(CC(C)(C)C3)C(=O)N(C)[C@@H](C3CCCC3)C(=O)N(C)[C@H](C(=O)N(C)C)CC(=O)N(C)[C@@H](C)C(=O)N[C@@H]([C@@H](C)CC)C(=O)N(C)CC(=O)N(C)[C@H]3C/C=C\CCN(C3=O)[C@@H](Cc3ccc(C(F)(F)F)cc3)C(=O)N(C)CC(=O)N[C@@H](CCc3cc(F)c(C(F)(F)F)c(F)c3)C(=O)N2C1 [PP1641] reaches 8 or more?
// result y

// query Does the reported pIC50 for CCO[C@@H]1C[C@H]2C(=O)NC3(CC(C)(C)C3)C(=O)N(C)[C@@H](C(CC)CC)C(=O)N(C)[C@H](C(=O)N(C)C)CC(=O)N(C)[C@H]3CC/C=C/c4ccc(cc4)C[C@@H](C(=O)N(C)CC(=O)N[C@@H](CCc4ccc(Cl)c(Cl)c4)C(=O)N2C1)N1CC/C=C\C[C@@H](C1=O)N(C)C(=O)CN(C)C(=O)[C@H]([C@@H](C)CC)NC3=O [PP2589] fall at or above the 8 mark?
// result n

// query Entry CCC[C@H]1C(=O)N[C@@H](C2CCCC2)C(=O)N(C)CC(=O)N(C)[C@H]2C/C=C\CCN(C2=O)[C@@H](Cc2ccc(C)cc2)C(=O)N(C)CC(=O)N[C@@H](CCc2ccc(C(F)(F)F)c(Cl)c2)C(=O)N2C[C@H](OCC)C[C@H]2C(=O)NC2(CC(C)(C)C2)C(=O)N(C)[C@@H](CC(C)C)C(=O)N(C)[C@H](C(=O)N(C)C)CC(=O)N1C [PP2190] : is its pIC50 no less than 8?
// result n

// query Is reported pIC50 greater than or equal to 8 here: CCCN(C)C(=O)[C@@H]1CC(=O)N(C)[C@@H](CC2CC2)C(=O)N[C@@H]([C@@H](C)CC)C(=O)N(C)CC(=O)N(C)[C@H]2C/C=C\CCN(C2=O)[C@@H](Cc2ccc(C(F)(F)F)cc2)C(=O)N(C)CC(=O)N[C@@H](CCc2cc(F)c(C(F)(F)F)c(F)c2)C(=O)N2C[C@H](OCC)C[C@H]2C(=O)NC2(CC(F)(F)C2)C(=O)N(C)[C@@H](C2CCCC2)C(=O)N1C [PP1739]
// result y
